tested on: K-562 leukemia; experiment: NCI-60 one-dose screen, 48 h (100 = growth as untreated, 0 = no growth, -100 = all killed); details: 10 µM
The panel holds about 83,000 compounds, 20% with a hit somewhere; the sample as a whole holds those more often.
Recorded growth values for a group of molecules are listed next.
measurement_kind: growth (%)

{"columns": ["molecule", "recorded_number"],
 "data": [
  ["O=C1Nc2ccc(Cl)cc2/C1=C/c1cccc(OCc2ccccn2)c1", 0.86],
  ["CN1CCN(c2ccc(C(=O)/C=C/c3ccc(C#N)cc3)cc2)CC1", 7.48],
  ["Cc1ccc(C(=O)Nc2ccc(-n3c(C)nc4c(cnn4-c4ccccc4)c3=O)cc2)cc1", 31.2],
  ["COc1ccc(C(=O)Nc2sc3c(c2C#N)CCC(=O)C3)cc1C(F)(F)F", 3.54],
  ["CC(=O)c1ccc(Nc2nc(SCCC(C)C)nc(-c3ccc(F)cc3)c2C#N)cc1", 63.9],
  ["COc1cccc(/C=C2\\N=C(C)N(CCc3ccc(S(N)(=O)=O)cc3)C2=O)c1", 99.9],
  ["CO[C@@H]1CSSC1Cn1nc(-c2ccc(Oc3ccccc3)cc2)c2c(N)ncnc21 (some centres undefined)", 4.87],
  ["Cc1ccc(C(=O)CSc2nnc(-c3c[nH]c4ccccc34)n2-c2ccccc2)cc1", 27.2],
  ["COc1ccc(CN2[C@H](C(=O)NCCCCCCC(=O)NO)Cc3c([nH]c4ccccc34)[C@H]2C2CC2)cc1", 7.5],
  ["COc1ccc(CCN2C(=O)/C(=C/c3csc(C#N)n3)SC2=S)cc1OC", 1.08],
  ["Cn1cc(/C=N/Nc2ccnc3cc(Cl)ccc23)c2ccccc21", 2.82],
  ["COc1ccc(/C=C/C(=O)c2ccc(NC(=O)CN3C(=O)NC(C)(c4ccccc4)C3=O)cc2)cc1 (centres undefined)", 60.2],
  ["CN1C(=O)N(C)C2SC(N/N=C/c3ccccc3F)=NC21 (centres undefined)", 17.2],
  ["COc1ccc(-c2ccc(SCC(=O)Nc3ccc(C#N)cc3)nn2)cc1", 90],
  ["CC(=O)Nc1ccc(-c2cn(-c3cccc(C(=O)Nc4cc(C(F)(F)F)cc(C(F)(F)F)c4)c3)nn2)cn1", -66.1],
  ["COc1cc2c(cc1OC)CN(CCCCOc1cc(O)c3c(=O)cc(-c4ccccc4)oc3c1)CC2", -6.81],
  ["O=C(c1ccc(Cl)cc1)C1[C@H](c2ccc(Br)cc2)[C@@H](c2ccccc2)NC12C(=O)Nc1ccc(Br)cc12 (some centres undefined)", -37.6],
  ["COc1cccc2nc(Nc3cccc(NC(=O)c4ccc(CN5CCCN(C)CC5)c(C(F)(F)F)c4)c3)ccc12", 5.93],
  ["O=C(Nc1nc2ccc([N+](=O)[O-])cc2s1)Nc1cc(Cl)ccc1I", -5.74]
]}
